For each entry below, report its residual activity value.
Target: Steryl-sulfatase (Homo sapiens) (UniProt P08842)
Sequence (P08842 whole entry): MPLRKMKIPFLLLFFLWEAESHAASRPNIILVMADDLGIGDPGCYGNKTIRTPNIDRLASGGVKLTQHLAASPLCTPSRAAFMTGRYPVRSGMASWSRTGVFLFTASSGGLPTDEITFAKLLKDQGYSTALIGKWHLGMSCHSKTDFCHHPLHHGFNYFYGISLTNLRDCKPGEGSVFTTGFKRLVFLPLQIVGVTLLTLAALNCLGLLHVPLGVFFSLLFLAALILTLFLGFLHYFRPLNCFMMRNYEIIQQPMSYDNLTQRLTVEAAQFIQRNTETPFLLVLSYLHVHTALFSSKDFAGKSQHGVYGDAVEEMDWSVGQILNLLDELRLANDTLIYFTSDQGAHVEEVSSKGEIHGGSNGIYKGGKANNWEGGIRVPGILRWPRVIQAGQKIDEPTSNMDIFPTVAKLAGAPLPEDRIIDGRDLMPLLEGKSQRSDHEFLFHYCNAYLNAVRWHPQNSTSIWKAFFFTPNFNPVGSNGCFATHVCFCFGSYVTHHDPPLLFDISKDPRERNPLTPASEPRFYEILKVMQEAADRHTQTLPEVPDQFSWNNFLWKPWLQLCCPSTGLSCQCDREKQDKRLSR
Assay: Inhibition of steroid sulfatase in human JEG3 cell lysates assessed as residual activity at 10 uM using [3H] E1S as substrate after 1 hr by scintillation spectrometry analysis relative to control; values are per cent of control
Details: Lysate
One number for each entry, in %.

CCCCCCCCN1CCN(C(=O)Nc2ccc(OS(N)(=O)=O)cc2)CC1; 12.4
COc1cc(-c2ccnc(N3CCN(C(=O)Nc4ccc(OS(N)(=O)=O)cc4)CC3)n2)cc(OC)c1OC; 19
NS(=O)(=O)Oc1ccc(NC(=O)N2CCN(c3nccc(-c4ccccc4)n3)CC2)cc1; 65.9
NS(=O)(=O)Oc1ccc(NC(=O)N2CCN(c3ccc(Cl)cc3)CC2)cc1; 14.9
NS(=O)(=O)Oc1ccc(NC(=O)N2CCN(c3ccc(Cl)cc3)CC2)c(F)c1; 108

Proceeding to the next compound to report its residual activity.
Report residual activity on Steryl-sulfatase (Homo sapiens) (UniProt P08842) for this entry: CCCCCCCCCCN1CCN(C(=O)Nc2ccc(OS(N)(=O)=O)cc2Cl)CC1
102

All figures here come from ChEMBL document CHEMBL4406829.
